# Tested on: LXRa homodimer (NR concentration 270 nM)
# ASSAY_PROTOCOL: PBM binding z-score (relative to random genomic background probes); higher = stronger binding; sequences stand for … in GC…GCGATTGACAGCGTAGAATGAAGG
MEASURED_ATTRIBUTE: PBM binding z-score

> print(dat)
                   biopolymer.sequence  test.result
 1  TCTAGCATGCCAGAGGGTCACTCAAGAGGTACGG       -0.463
 2  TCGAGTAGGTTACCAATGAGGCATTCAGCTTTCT       -0.666
 3  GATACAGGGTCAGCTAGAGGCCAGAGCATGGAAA        -0.62
 4  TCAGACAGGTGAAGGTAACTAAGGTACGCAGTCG       -0.132
 5  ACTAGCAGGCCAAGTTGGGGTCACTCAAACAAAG        0.123
 6  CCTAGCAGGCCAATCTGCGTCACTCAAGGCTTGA       -0.462
 7  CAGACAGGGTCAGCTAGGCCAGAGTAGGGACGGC       -0.426
 8  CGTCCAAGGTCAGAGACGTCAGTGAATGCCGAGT       -0.161
 9  ATATGTAGGTTAGCTCGGGTCATTCAGACTAGGC         1.52
10  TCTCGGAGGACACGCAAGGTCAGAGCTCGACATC         1.31
11  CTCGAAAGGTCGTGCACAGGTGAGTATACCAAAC        0.217
12  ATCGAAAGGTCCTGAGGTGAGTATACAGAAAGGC       -0.698
13  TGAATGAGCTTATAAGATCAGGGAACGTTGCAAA       -0.553
14  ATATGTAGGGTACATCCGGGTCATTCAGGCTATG         1.43
15  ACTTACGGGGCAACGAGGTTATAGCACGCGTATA       -0.335
16  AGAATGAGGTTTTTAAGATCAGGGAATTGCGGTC       -0.308
17  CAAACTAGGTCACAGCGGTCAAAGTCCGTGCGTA          5.2
18  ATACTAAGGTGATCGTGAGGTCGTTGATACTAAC         0.85
19  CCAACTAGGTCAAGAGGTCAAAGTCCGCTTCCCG         6.26
20  TTACCAAGGTGAGCTGAGGGCGTTGATCCAACTC       -0.543
21  TCAGACAGGTGAAGGAAACTCAGGTACGCAGTCG      0.00488
22  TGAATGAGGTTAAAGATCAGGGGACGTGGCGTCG       -0.153
23  GCGACTGGGGCAAAGCAGGTTACTATAAGGTTGG       -0.478
24  TCATATAGGTAAATGCTATGTGAAAGTCCGATCT     0.000605
25  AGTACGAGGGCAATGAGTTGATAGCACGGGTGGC       -0.477

----------
PBM binding z-score for assorted sequences
# Tested on: PPARg:RXRa 30nM:10nM, anti-RXR (NR concentration 30 nM, RXRa partner concentration 10 nM)
# ASSAY_PROTOCOL: PBM binding z-score (relative to random genomic background probes); higher = stronger binding; sequences stand for … in GC…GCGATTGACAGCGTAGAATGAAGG
MEASURED_ATTRIBUTE: PBM binding z-score

> print(dat)
                   biopolymer.sequence                         system.under.test  test.result
 1  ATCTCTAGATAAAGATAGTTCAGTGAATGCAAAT  PPARg:RXRa 30nM:10nM, anti-RXR (NR concentration 30 nM, RXRa partner concentration 10 nM)        0.338
 2  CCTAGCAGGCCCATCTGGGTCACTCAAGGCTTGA  PPARg:RXRa 30nM:10nM, anti-RXR (NR concentration 30 nM, RXRa partner concentration 10 nM)       -0.909
 3  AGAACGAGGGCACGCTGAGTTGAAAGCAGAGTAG  PPARg:RXRa 30nM:10nM, anti-RXR (NR concentration 30 nM, RXRa partner concentration 10 nM)       0.0784
 4  CGTCAAAGTTCAACTAAGGTAACGTAGAGCACGC  PPARg:RXRa 30nM:10nM, anti-RXR (NR concentration 30 nM, RXRa partner concentration 10 nM)         2.54
 5  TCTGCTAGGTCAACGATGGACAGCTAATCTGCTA  PPARg:RXRa 30nM:10nM, anti-RXR (NR concentration 30 nM, RXRa partner concentration 10 nM)         2.13
 6  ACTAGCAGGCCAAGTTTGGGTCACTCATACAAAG  PPARg:RXRa 30nM:10nM, anti-RXR (NR concentration 30 nM, RXRa partner concentration 10 nM)       -0.211
 7  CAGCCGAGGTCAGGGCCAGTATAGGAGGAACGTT  PPARg:RXRa 30nM:10nM, anti-RXR (NR concentration 30 nM, RXRa partner concentration 10 nM)          1.2
 8  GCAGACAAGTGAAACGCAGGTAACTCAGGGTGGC  PPARg:RXRa 30nM:10nM, anti-RXR (NR concentration 30 nM, RXRa partner concentration 10 nM)       -0.558
 9  CGAACTAGGTCAAGGGCAGTGAATCTCCGCACGC  PPARg:RXRa 30nM:10nM, anti-RXR (NR concentration 30 nM, RXRa partner concentration 10 nM)         4.74
10  TATACAGGGTCAAAGGCCAGAGTCCGAATGTCGA  PPARg:RXRa 30nM:10nM, anti-RXR (NR concentration 30 nM, RXRa partner concentration 10 nM)         4.84
11  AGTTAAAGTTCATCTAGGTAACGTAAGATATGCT  PPARg:RXRa 30nM:10nM, anti-RXR (NR concentration 30 nM, RXRa partner concentration 10 nM)            2
12  ATGGAAAGGTCGAGGTGAGTATAGAGAAAGGGAA  PPARg:RXRa 30nM:10nM, anti-RXR (NR concentration 30 nM, RXRa partner concentration 10 nM)         1.44
